- Tested on: 134 cancer cell lines
- test: Cell viability assay (ATPlite, 72 hours), IC50 on cancer cell line panel
- test settings: Homo sapiens, Rec1, read-out: IC50 in cell proliferation assay
pIC50: −log10 of the molar value.
Kind request: treat 6 as inclusive, so pIC50 at 6 or higher is 1, anything lower is 0.

Req: Check this molecule for pIC50 at or above 6: CCn1c(=O)c(-c2cc(NC(=O)Nc3ccccc3)c(F)cc2Br)cc2cnc(NC)cc21
Resp: 0

* * *

- System: 134 cancer cell lines
- test: Cell viability assay (ATPlite, 72 hours), IC50 on cancer cell line panel
- test settings: read-out: IC50 in cell proliferation assay, cell line T24
pIC50: −log10 of the molar value.
Kind request: treat 6 as inclusive, so pIC50 at 6 or higher is met, anything lower is not met.

Please review the following examples before continuing.
molecule: Cc1cc(Nc2ncc(Cl)c(Nc3ccccc3S(=O)(=O)C(C)C)n2)c(OC(C)C)cc1C1CCNCC1 [ceritinib]
assayed target: 134 cancer cell lines
answer label: not met

molecule: FC(F)(F)c1ccc(CNc2ccc(Cc3c[nH]c4ncc(Cl)cc34)cn2)cn1 [pexidartinib]
assayed target: 134 cancer cell lines
answer label: not met

molecule: COc1ccc(CN2C3CC2CN(c2ccc(-c4cc(OCC(C)(C)O)cn5ncc(C#N)c45)cn2)C3)cn1 [selpercatinib]
assayed target: 134 cancer cell lines
answer label: not met

molecule: CC(=O)Nc1cccc(-n2c(=O)n(C3CC3)c(=O)c3c(Nc4ccc(I)cc4F)n(C)c(=O)c(C)c32)c1 [trametinib]
assayed target: 134 cancer cell lines
answer label: met

molecule: COc1cc2ncnc(Nc3ccc(F)c(Cl)c3)c2cc1NC(=O)/C=C/CN1CCCCC1 [dacomitinib]
assayed target: 134 cancer cell lines
answer label: not met

Continue with the molecule presented below.
Req: Check this molecule for pIC50 at or above 6: C[C@H](Nc1ncnc2nc[nH]c12)c1cc2cccc(Cl)c2c(=O)n1-c1ccccc1 [duvelisib]
Resp: not met
